Data provenance is ChEMBL document CHEMBL1128374.

# Species on record: Mus musculus
# protocol: In vitro inhibition of interleukin-2 (IL-2) production induced by stimulating lymphocytes derived from mouse spleens with the […]
# Assay type: functional
# experimental.parameters: Spleen
Catalogue of compounds with associated IC50
assay.readout: IC50

{"columns": ["cpd.smiles", "observed.value"],
 "data": [
  ["C/C=C/C[C@@H](C)[C@@H](O)[C@H]1C(=O)N[C@@H](CC)C(=O)N(C)CC(=O)N(C)[C@@H](CC(C)C)C(=O)N[C@@H](C(C)C)C(=O)N(C)[C@@H](CC(C)C)C(=O)N[C@@H](C)C(=O)N[C@H](COCC(=O)OC(C)(C)C)C(=O)N(C)[C@@H](CC(C)C)C(=O)N(C)[C@@H](CC(C)C)C(=O)N(C)[C@@H](C(C)C)C(=O)N1C", "> 1 µg/mL"],
  ["C=C(COC[C@H]1NC(=O)[C@H](C)NC(=O)[C@H](CC(C)C)N(C)C(=O)[C@H](C(C)C)NC(=O)[C@H](CC(C)C)N(C)C(=O)CN(C)C(=O)[C@H](CC)NC(=O)[C@H]([C@H](O)[C@H](C)C/C=C/C)N(C)C(=O)[C@H](C(C)C)N(C)C(=O)[C@H](CC(C)C)N(C)C(=O)[C@H](CC(C)C)N(C)C1=O)CO[Si](C)(C)C(C)(C)C", "> 1 µg/mL"],
  ["C=C(CCl)COC[C@H]1NC(=O)[C@H](C)NC(=O)[C@H](CC(C)C)N(C)C(=O)[C@H](C(C)C)NC(=O)[C@H](CC(C)C)N(C)C(=O)CN(C)C(=O)[C@H](CC)NC(=O)[C@H]([C@H](O)[C@H](C)C/C=C/C)N(C)C(=O)[C@H](C(C)C)N(C)C(=O)[C@H](CC(C)C)N(C)C(=O)[C@H](CC(C)C)N(C)C1=O", "> 0.1 µg/mL"]
]}
